The entries below come with measured Activity values attached.
# System: Plasmodium falciparum
# experiment_notes: Inhibition of plasmodium falciparum PKB assessed as remaining activity at 1 uM incubated for 2 hrs by luciferin-based luminescence assay relative to control

{"smiles_repr": "COc1cc2nccc(Oc3ccc(NC(=O)Nc4ccc(C=C5CCNCC5)cc4)c(F)c3)c2cc1OC", "Activity (%)": 38}
{"smiles_repr": "COc1cc2nccc(Oc3ccc(NC(=O)Nc4ccc(CC5CCNCC5)c(C(F)(F)F)c4)c(F)c3)c2cc1OC", "Activity (%)": 21}
{"smiles_repr": "COc1cc2nccc(Oc3ccc(NC(=O)Nc4ccc(OC5CCN(C)CC5)c(C(F)(F)F)c4)c(F)c3)c2cc1OC", "Activity (%)": 20}
{"smiles_repr": "COc1cc2nccc(Oc3ccc(NC(=O)Nc4ccc(CC5CCNCC5)cc4)c(F)c3)c2cc1OC", "Activity (%)": 30}

====

# System: Plasmodium falciparum
# experiment_notes: Inhibition of plasmodium falciparum NEK3 assessed as remaining activity at 1 uM incubated for 2 hrs by luciferin-based luminescence assay relative to control

{"smiles_repr": "COc1cc2nccc(Oc3ccc(NC(=O)Nc4ccc(CC5CCNCC5)cc4)c(F)c3)c2cc1OC", "Activity / %": 82}
{"smiles_repr": "COc1cc2nccc(Oc3ccc(NC(=O)Nc4ccc(CC5CCNCC5)c(C(F)(F)F)c4)c(F)c3)c2cc1OC", "Activity / %": 7}
{"smiles_repr": "COc1cc2nccc(Oc3ccc(NC(=O)Nc4ccc(OC5CCN(C)CC5)c(C(F)(F)F)c4)c(F)c3)c2cc1OC", "Activity / %": 6}
{"smiles_repr": "COc1cc2nccc(Oc3ccc(NC(=O)Nc4ccc(C=C5CCNCC5)cc4)c(F)c3)c2cc1OC", "Activity / %": 84}

====

# assayed_system: Glycogen synthase kinase 3 (Plasmodium falciparum (isolate 3D7)) (UniProt O77344)
# Sequence (whole entry): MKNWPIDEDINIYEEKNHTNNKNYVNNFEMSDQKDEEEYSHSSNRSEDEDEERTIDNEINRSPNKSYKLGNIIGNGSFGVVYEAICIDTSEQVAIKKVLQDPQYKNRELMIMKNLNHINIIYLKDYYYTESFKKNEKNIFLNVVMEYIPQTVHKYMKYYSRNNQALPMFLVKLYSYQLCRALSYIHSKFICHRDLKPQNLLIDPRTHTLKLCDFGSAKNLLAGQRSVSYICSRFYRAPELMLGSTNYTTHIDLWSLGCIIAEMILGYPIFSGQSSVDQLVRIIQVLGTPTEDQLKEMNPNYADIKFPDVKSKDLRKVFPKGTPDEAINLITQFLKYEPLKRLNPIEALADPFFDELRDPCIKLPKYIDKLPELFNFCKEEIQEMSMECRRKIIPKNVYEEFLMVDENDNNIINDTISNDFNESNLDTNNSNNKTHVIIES
# experiment_notes: Inhibition of plasmodium falciparum GSK3 assessed as remaining activity at 1 uM incubated for 2 hrs by luciferin-based luminescence assay relative to control
The entries below come with measured Activity values attached.

{"smiles_repr": "COc1cc2nccc(Oc3ccc(NC(=O)Nc4ccc(CC5CCNCC5)c(C(F)(F)F)c4)c(F)c3)c2cc1OC", "Activity (%)": 34}
{"smiles_repr": "COc1cc2nccc(Oc3ccc(NC(=O)Nc4ccc(CC5CCNCC5)cc4)c(F)c3)c2cc1OC", "Activity (%)": 97}
{"smiles_repr": "COc1cc2nccc(Oc3ccc(NC(=O)Nc4ccc(C=C5CCNCC5)cc4)c(F)c3)c2cc1OC", "Activity (%)": 100}
{"smiles_repr": "COc1cc2nccc(Oc3ccc(NC(=O)Nc4ccc(OC5CCN(C)CC5)c(C(F)(F)F)c4)c(F)c3)c2cc1OC", "Activity (%)": 30}
